Target: HIV-1 Env of pseudovirus BB1012-11.TC21 (HIV-1)
Test: cell-based or functional assay
Label rule, in plain words: neutralization IC80 of 0.1 µg/mL and up is Fulfilled, under 0.1 µg/mL is Not fulfilled.

BINDER	ASSIGNED CLASS
MS-88 (antibody, V domains shown) VH: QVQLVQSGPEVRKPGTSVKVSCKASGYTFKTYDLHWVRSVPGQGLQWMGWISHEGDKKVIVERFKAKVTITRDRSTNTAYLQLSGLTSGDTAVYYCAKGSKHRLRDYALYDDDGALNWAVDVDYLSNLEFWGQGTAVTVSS VL: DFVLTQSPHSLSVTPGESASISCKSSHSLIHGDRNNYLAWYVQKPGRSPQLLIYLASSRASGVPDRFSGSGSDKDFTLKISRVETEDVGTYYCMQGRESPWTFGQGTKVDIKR	Not fulfilled
MS-92 (antibody, V domains shown) VH: QVQLVQSGPEVRKPGTSVKVSCKAPGNTLKTYDLHWVRSVPGQGLEWMGWISHEGDKKVIVERFKAKVTIDRDRSTNTAYLQLSGLRSGDTAVYYCAKGSKHRLRDYALYDDDGALNWAVDVDYLSNLEFWGQGTAVTVSS VL: DIVLTQSPHSLSVTPGESASISCKSSHSLIHGDRNNYLAWYVQKPGRSPQLLIYLASSRASGVPDRFSGSGSDKDFTLKISRVETEDVGTYYCMQGRESPWTFGQGTKVDIKR	Fulfilled
MS-89 (antibody, V domains shown) VH: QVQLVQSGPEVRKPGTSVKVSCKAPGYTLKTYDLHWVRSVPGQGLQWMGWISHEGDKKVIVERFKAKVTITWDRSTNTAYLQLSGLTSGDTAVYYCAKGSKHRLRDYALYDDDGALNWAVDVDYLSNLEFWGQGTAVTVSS VL: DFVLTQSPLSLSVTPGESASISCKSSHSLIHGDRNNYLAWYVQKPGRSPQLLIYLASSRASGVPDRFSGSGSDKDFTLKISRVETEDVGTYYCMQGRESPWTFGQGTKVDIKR	Fulfilled
MS-72 (antibody, V domains shown) VH: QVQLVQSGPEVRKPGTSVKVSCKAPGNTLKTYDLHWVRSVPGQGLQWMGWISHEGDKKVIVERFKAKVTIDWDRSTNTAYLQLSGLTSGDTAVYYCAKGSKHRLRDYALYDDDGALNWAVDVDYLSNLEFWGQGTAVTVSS VL: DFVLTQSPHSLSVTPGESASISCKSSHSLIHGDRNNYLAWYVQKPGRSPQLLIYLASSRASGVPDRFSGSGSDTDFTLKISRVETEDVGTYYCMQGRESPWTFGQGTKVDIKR	Not fulfilled
MS-75 (antibody, V domains shown) VH: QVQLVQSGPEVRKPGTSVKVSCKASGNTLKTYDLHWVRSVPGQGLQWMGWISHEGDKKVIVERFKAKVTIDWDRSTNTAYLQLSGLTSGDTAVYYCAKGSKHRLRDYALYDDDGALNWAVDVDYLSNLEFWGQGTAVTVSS VL: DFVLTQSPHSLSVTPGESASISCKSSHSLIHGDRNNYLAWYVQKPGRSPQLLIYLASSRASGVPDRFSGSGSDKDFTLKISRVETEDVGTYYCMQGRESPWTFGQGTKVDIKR	Fulfilled
